- Target Of Assay: Short transient receptor potential channel 4 (Mus musculus) (UniProt Q9QUQ5)
- Sequence (Q9QUQ5 whole entry, looked up): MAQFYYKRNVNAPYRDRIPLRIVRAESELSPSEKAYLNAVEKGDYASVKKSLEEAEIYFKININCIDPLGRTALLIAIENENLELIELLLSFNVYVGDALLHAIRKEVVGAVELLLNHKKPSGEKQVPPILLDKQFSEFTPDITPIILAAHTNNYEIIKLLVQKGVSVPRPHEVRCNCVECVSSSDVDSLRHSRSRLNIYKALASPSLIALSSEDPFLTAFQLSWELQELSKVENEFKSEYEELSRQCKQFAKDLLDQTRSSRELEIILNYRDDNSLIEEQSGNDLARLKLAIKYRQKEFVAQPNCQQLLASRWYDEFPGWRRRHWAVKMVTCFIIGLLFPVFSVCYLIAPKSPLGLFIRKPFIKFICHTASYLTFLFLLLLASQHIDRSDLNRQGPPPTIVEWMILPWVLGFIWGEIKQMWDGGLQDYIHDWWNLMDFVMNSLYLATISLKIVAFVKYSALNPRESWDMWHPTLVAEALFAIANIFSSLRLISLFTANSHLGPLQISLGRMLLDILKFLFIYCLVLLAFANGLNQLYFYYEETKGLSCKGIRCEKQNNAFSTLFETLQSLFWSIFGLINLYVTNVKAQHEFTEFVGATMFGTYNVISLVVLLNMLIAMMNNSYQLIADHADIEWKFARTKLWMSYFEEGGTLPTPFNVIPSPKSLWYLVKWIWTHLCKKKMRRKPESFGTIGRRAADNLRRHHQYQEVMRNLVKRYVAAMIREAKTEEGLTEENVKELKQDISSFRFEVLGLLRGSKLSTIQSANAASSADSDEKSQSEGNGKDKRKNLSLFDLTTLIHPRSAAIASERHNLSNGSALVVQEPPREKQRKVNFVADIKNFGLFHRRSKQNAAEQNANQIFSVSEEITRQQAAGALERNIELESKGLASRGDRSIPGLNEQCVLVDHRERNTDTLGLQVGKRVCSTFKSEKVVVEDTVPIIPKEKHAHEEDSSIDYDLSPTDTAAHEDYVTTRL
- Assay Comment: blockers of DAMGO-evoked TRPC4 calcium flux – cell-based, Fluo4, HEK293 TRPC4beta/mu-opioid, confirmation (AID 2636)
- Protocol Conditions: at 10 µM
Calls of active or inactive are those of the source.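 The calls were made as follows: active = calcium signal cut by more than 3 SD below the full-agonist control yet still positive, in both repeats and the earlier primary screen; inactive = the rest.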
Outcomes: active, inactive

- Brc1ccc(CN2C3=NCCCN3c3ccccc32)cc1: active
- CNc1oc(-c2ccccc2Cl)nc1P(=O)(c1ccccc1)c1ccccc1: inactive
- CC(Oc1ccc(Cl)cc1Cl)c1nc(-c2ccccn2)no1 (centres undefined): active
- Cc1ccc(OCC(=O)N(C)CCc2ccccn2)cc1: inactive
- CCn1cc(CN2CCC(n3nccc3NC(=O)CCOc3ccccc3)CC2)c(C)n1: inactive
- Cc1ccc(Nc2nc3ccccc3[nH]2)nc1: inactive
- O=[N+]([O-])c1cc(C(F)(F)F)ccc1NC1CCN(Cc2ccccc2)C1 (centres undefined): inactive
- Cc1ccc2[nH]c3c(N4CCc5ccccc5C4)ncnc3c2c1: inactive
- COc1ccc(NC(=O)c2c[nH]n3c(=O)cc(C4CCN(C(=O)OC(C)(C)C)CC4)nc23)cc1Cl: active
- O=C(NC1CCCN(Cc2ccc(Cl)cc2)C1)C1CCC1 (centres undefined): inactive
- Cc1cc2oc(C(=O)N(Cc3cccs3)C3CCS(=O)(=O)C3)cc(=O)c2cc1Cl (centres undefined): inactive
- CN(C)CCCNc1ncnc2c1cnn2Cc1ccccc1Cl: inactive
- CCOC(=O)C1(Cc2cccc(OC)c2)CCN(Cc2ccc(OC)c(O)c2)CC1: inactive
- Cn1cc(CNCC2CCCO2)c(-c2ccc(Oc3ccccc3)cc2)n1 (centres undefined): active
- COc1ccc(Nc2nc(NCC3CCCO3)c3ccccc3n2)c(OC)c1 (centres undefined): active
- Nc1c2c(nc3ccccc13)CCC2: active
- O=C(O)c1ccc(Cl)cc1Nc1nc2cc(Cl)ccc2o1: active
- CN(C)C(CNC(=O)c1cccc(S(=O)(=O)N(C)C)c1)c1ccccc1 (centres undefined): inactive
- CC(=O)c1ccc(N2CCN(C(=O)C3CCN(S(=O)(=O)c4ccc5c(c4)CC(C)N5C(=O)C4CC4)CC3)CC2)cc1 (centres undefined): inactive
- Cc1[nH]n2c(=O)c3c(nc2c1-c1ccccc1)CCC3: active
- COc1ccc(C(CNC(=O)c2oc3ccc(F)cc3c2C)N2CCCCC2)cc1 (centres undefined): active
- CC(=O)N1CC(c2ccccc2)C(c2ccc(Cl)cc2)=N1 (centres undefined): inactive
- CC(=O)Nc1ccc(S(=O)(=O)NC2=C(N3CCN(Cc4ccccc4)CC3)C(=O)c3ccccc3C2=O)cc1: active
- N=c1c2c(n(Cc3ccc(Cl)cc3)c3c1CCC3)CCC2: active
- COc1cc(OC)c(C2N(C)c3ccccc3N2C)cc1OC: active
- COc1cc(C2c3c(-c4ccccc4)n[nH]c3C(=O)N2c2ccccc2)ccc1O (centres undefined): inactive
- CCn1c(C)nc2cc(C(=O)N/N=C/c3cccc(O)c3O)ccc21: inactive
- Cc1ccc(C)c2c(N)c3c(nc12)CCCCC3 (tested in a mixture with another compound): active
- O=C(N/N=C/c1ccco1)C1COc2ccccc2O1 (centres undefined): inactive
- O=C(Cc1cccc2ccccc12)Nc1ccc(Br)cc1C(=O)O: active
- Cc1c(N2C(=O)/C(=C/c3ccccc3)SC2=S)c(=O)n(-c2ccccc2)n1C: inactive
- CCOc1ccccc1N(CC)C(=O)c1nn(C)c2c1CSc1ccccc1-2: active
- Cc1ccc(-n2cc(CNC(C)c3cnn(C)c3)c(-c3ccc(F)cc3)n2)cc1 (centres undefined): inactive
- Cc1nc(Cl)nc(N(C)c2ccccc2)c1[N+](=O)[O-]: active
- CCCCN(CCCC)/C(N)=N/c1nc(C)cc(C)n1: inactive
- COCCSc1ccccc1C(=O)N1CCC(Cc2ccccc2)CC1: inactive
- CN1C2C=C(N(CCc3ccccc3)C(=O)c3ccc(Cl)cc3)CC1CC2 (centres undefined): inactive
- Cc1cccc(N(C(=O)c2snc(C(N)=O)c2N)C(C(=O)NCC2CCCO2)c2ccc3ncccc3c2)c1 (centres undefined): active
- Cc1cc(Nc2ccccc2)nc2cc(O)ccc12: active
- Cc1ccccc1C(=O)NNC(=S)NC(=O)COc1ccccc1: inactive
- Cc1ccc(C(=O)NC(=S)Nc2c(C)ccc3nsnc23)cc1: active
- NS(=O)(=O)c1ccc(CCNCc2cc(Br)ccc2OCc2ccccc2)cc1: inactive
- CCCCCCc1cc2cc(-c3nnc(-c4ccccc4O)o3)c(=O)oc2cc1O: inactive
- O=[N+]([O-])c1ccc(CN2CCN(c3nc4ccccc4s3)CC2)cc1: inactive

###

- Tested on: TRPC4 (mouse), co-expressed with 5HT1a in HEK293
- Assay Comment: enhancement of serotonin-evoked TRPC4 response – cell-based, second counter screen, HEK293 TRPC4/5HT1a, Fluo-4, counter-screen for TRPC4 potentiator project, confirmation (AID 434979)
- Protocol Conditions: Fluo-4 calcium flux, at 10 µM, serotonin added at its EC20 dose; hits give high values
Active and inactive are the calls of the source.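 How the source made its calls: active means signal rise over 3 SD above mean of control wells given weak agonist, in both repeats and first screen; inactive means the rest.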
Measured Endpoint: potentiation

• CN(C)C(CNC(=O)c1ccc(S(=O)(=O)NCc2ccco2)cc1)c1ccccc1 (configuration not stated) = inactive
• CCOc1ccc2[nH]c3c(N4CCN(c5ccccn5)CC4)ncnc3c2c1 = inactive
• COc1ccc(C(=O)CN2CCN(CCN3C(=O)c4cccc5cccc(c45)C3=O)CC2)cc1 = 18.9% (active)
• O=C(NC1CCN(Cc2ccccc2)CC1)c1cccc(S(=O)(=O)Nc2cc(C(F)(F)F)ccc2Cl)c1 = 22.2% (active)
• CCOC(=O)C1(CCOc2ccccc2)CCN(Cc2cccs2)CC1 = inactive
• C=CCN1CCN(C(c2cccc(OC)c2OC)c2nnnn2CCC(C)C)CC1 (configuration not stated) = inactive
• O=C(c1ccccc1)C1CCc2occc2C1=O (configuration not stated) = inactive
• CCN(C(=O)c1cnc(NC(C)C)cc1C(F)(F)F)c1ccc(Cl)cc1Cl = inactive
• CCN1CCN(c2nc(N)c([N+](=O)[O-])c(Nc3ccc(C)cc3)n2)CC1 = 24.9% (active)
• C=C(C)COc1ccc(-c2[nH]ncc2Oc2ccc(OC)cc2)c(O)c1 = inactive
• C=CCn1c(SCCN2CCOCC2)nc2c1c(=O)[nH]c(=O)n2C = 35.7% (active)
• CCn1nc(C)c(CN2CCCC(CO)(Cc3cccc(Cl)c3)C2)c1C (configuration not stated) = inactive
• CC(C)Cn1c(O)c(N=NC(=O)c2cccc(S(=O)(=O)N3CCCCC3)c2)c2ccccc21 = inactive
• CCOc1cccc(CNCCO)c1OCc1ccc(Cl)cc1 = inactive
• CCCn1c(N)c(C(=O)CSc2n[nH]c(-c3ccc(C)cc3)n2)c(=O)[nH]c1=O = inactive
• CC(C)Cc1ccc(CN2CCCC(NC(=O)CCn3cnnn3)C2)cc1 (configuration not stated) = inactive
• Cc1ccc2c(c1)C1CN(C)CCC1N2C(=S)NC(=O)c1ccc(Br)cc1 (configuration not stated) = 23.8% (active)
• CC(=O)c1cccc(Nc2cc(C)nc3c(C)cc(C)cc23)c1 = inactive
• COc1ccccc1CNCc1cc(Br)ccc1OC = inactive
• CCCCN(C)CCNC(=O)c1ccc(Cn2c(=S)[nH]c3ccc(Br)cc3c2=O)cc1 = 33.5% (active)
• O=C(O)C1C2C=CC(C2)C1C(=O)NC1CCN(Cc2ccccc2)CC1 (configuration not stated) = inactive
• Cc1cc(N2CCN(C)CC2)ccc1NC(=O)c1ccc(-c2ccc(Cl)cc2)o1 = inactive

###

- Target Of Assay: Short transient receptor potential channel 4 (Mus musculus)
- Assay Comment: blockers of DAMGO-evoked TRPC4 calcium flux – cell-based, Fluo4, HEK293 TRPC4beta/mu-opioid, confirmation (AID 2636)
- Protocol Conditions: at 10 µM
The source made the active and inactive calls.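 The calls were made as follows: active = calcium signal cut by more than 3 SD below the full-agonist control yet still positive, in both repeats and the earlier primary screen; inactive = the rest.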
Outcomes: active, inactive

• CN(C(=O)CSc1nc(-c2ccc(C(C)(C)C)cc2)c(C#N)c(=O)[nH]1)C1CCCCC1 = active
• Cc1c(Cl)cccc1NC(=S)NCC(c1cccnc1)N(C)C (stereo unspecified) = inactive
• CCCCN(C)CCNC(=O)c1cc2c(-c3cccc(OC)c3)nn(C)c2s1 = inactive
• CCC(C)NCCOCCOc1ccccc1-c1ccccc1 (stereo unspecified) = active
• Cc1nc2ccccc2n1CC(O)COc1ccccc1Cl (stereo unspecified) = active
• CC(C)Cc1nc(N2CCN(C(=O)C(C)C)CC2)c(C#N)c2c1CCC2 = inactive

###

- Test system: TRPC4 beta (transient receptor potential cation channel C4), mouse
- Assay Comment: TRPC4 cation channel opening, retest – cell-based, Fluo4 calcium, HEK293 TRPC4beta/mu-opioid, duplicates, 10 µM, confirmation (AID 2426)
- Protocol Conditions: Fluo4 calcium fluorescence, at 10 µM
Activity calls are given as the source filed them.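 The calls were made as follows: active = fluorescence ratio normalized to control raised more than 50% in primary screen plus both repeat runs; inactive = the rest.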
Outcomes: active, inactive

- CNC(=S)N1CCN(C(c2ccccc2)c2ccccc2)CC1: active
- CC(=O)Nc1ccc(S(=O)(=O)N2CCN(CCCOc3cc(C)ccc3C)CC2)cc1: inactive
- COc1cc2c(cc1OC)C(C)N(C(=O)C(NC(=O)c1ccccc1)C(C)C)CC2 (configuration not stated): active
- Clc1cccc(OCCN2CCNCC2)c1: active
- CCN(CC)CCn1c(=N)n(CC(O)COc2cccc(C)c2)c2ccccc21 (configuration not stated): inactive
- Cc1nnc(Sc2cc(NCCCO)c([N+](=O)[O-])c3nonc23)s1: inactive
- CCOc1ccc2nc(N3CCCC(C(=O)NCC4CCCO4)C3)sc2c1 (configuration not stated): inactive
- CCSC1=N/C(=C\c2ccc(OC)cc2)C(=O)N1: inactive
- COc1ccc(C(CNC(=O)c2oc3ccc(F)cc3c2C)N2CCCCC2)cc1 (configuration not stated): inactive
- O=C(NC1CCN(Cc2ccccc2)CC1)c1cccc(S(=O)(=O)Nc2cc(C(F)(F)F)ccc2Cl)c1: inactive
- COc1ccc(C(CNCC(O)COc2c(C)ccc(C)c2C)N(C)C)cc1 (configuration not stated): inactive
- COC(=O)c1ccccc1NC(=O)CCC(=O)N1CC(C)Oc2ccc(C)cc21 (configuration not stated): inactive
- C=CCNC(=O)C(=O)NCC1CCCN1S(=O)(=O)c1cccs1 (configuration not stated): inactive
- CCc1ccc(/C=C2/SC(=S)N(CCCC(=O)Nc3ccccc3C(=O)O)C2=O)cc1: inactive
- O=C1C(Cl)=C(Nc2cccc(O)c2)C(=O)N1Cc1ccccc1: inactive
- COc1ccc(C)c(NC(=O)NCCc2cnc[nH]2)c1: active
- CNC[C@H](Cc1ccccc1)NC[C@@H](Cc1cccc2ccccc12)NCCc1ccc(C)cc1: active
- CN(C)C(CNC(=O)CCc1nc2ccccc2s1)c1ccccc1 (configuration not stated): inactive
- O=C(c1cccc(C(F)(F)F)c1)C1CCCN(Cc2cccn2-c2ccccn2)C1 (configuration not stated): inactive
- OC1(c2ccc(Br)cc2)CN(c2ccccc2)C2=[N+]1CCS2 (configuration not stated): inactive
- CN(CCc1ccccn1)C(=O)CC1C(=O)NCCN1Cc1ccc(-c2ccccc2)cc1 (configuration not stated): active
- COc1ccc(C2NC(C(=O)O)Cc3c2[nH]c2ccccc32)cc1CN1CCN(c2ccc(F)cc2)CC1 (configuration not stated): inactive
